Numbers sourced from the supplement of paper PMC9732359.

Assay: protein stability index of a GFP-peptide fusion (yeast GPS) (PSI 1-4); higher = more stable; sorted into four equal gates, so the index is relative within each strain
Conditions: ubr1∆
// values below are reported protein stability index
attribute measured: protein stability index

| residue sequence | result |
| --- | --- |
| MLKQHLFKYQGHIGAYL [PUP1] | 2.25 |
| SKEGQYKAKIKELENNL [YIL149C/MLP2] | 3.03 |
| THHTDIIPIVDYAQLDH [ARP9] | 2.61 |
| TNVRLYSLLLASKGIDR [ECM29] | 3.33 |
| IPHDLNFLQESYEVEHV [TAF14] | 3.12 |
| YTLTEEGVEYLREYLNL [RPS10A] | 3.39 |
| NLMGNRNNHNSNTSTSK [SNF12] | 3.07 |
| ISVARKIYDAFPQTAML [DIS3] | 2.36 |
| LYPIFLLDDKKLMDEDS [YJR042W/NUP85] | 1.66 |
| KNGVIPEESKGSFKYIT [SWP82] | 3.18 |
| SKGYVKTQFSWQYYYYT [RPS10A] | 2.92 |
| RMLLNLCKSATTKMWPT [BRR2] | 1.99 |
| AQKYASIVGVDLSSAAS [FAS2] | 1.75 |
| FLDYTTDNVSMYPSPTG [PRP8] | 2.95 |
| EVALFSQKAKLMTFNAE [YLR335W/NUP2] | 1.4 |
| LKALSHHYNPKTKKLNL [BRR2] | 2.69 |
| GGSATARHKKKVENLDY [YML031W/NDC1] | 3.62 |
| PQAILAKNSIIDSSNLP [SWI1] | 2.36 |
| HHELVPKHIRLSSDEKR [RPB5] | 3.16 |
| SCISISDIISMLQISDD [RRI2] | 1.14 |
| RDVRDQAAGGLSIRLTN [RPN8] | 2.6 |
| PDYYVSILSFVDKELLE [RPT2] | 2.59 |
| KEGASTNWDDHAIIIFG [YMR153W/NUP53] | 2.59 |
| YRNFMVNSYRLNPNEYF [SWI3] | 2.46 |
| VDIDDPDMMVDSFTMPN [SNF2] | 3.15 |
| ALECRLASAIASGLLRA [CSN12] | 1.94 |
| RLAEVNLKDLNNVKQMV [RPO21] | 3.08 |
| FIAVGQILPESQWNDSS [SIR3] | 2.71 |
| CKNFEKTQLGSTMTEPV [GAL11] | 2.84 |
| HTLALEFVNGGKVVKNV [RRP46] | 2.14 |

====

Experiment: protein stability index of a GFP-peptide fusion (yeast GPS) (PSI 1-4); higher = more stable; sorted into four equal gates, so the index is relative within each strain
Conditions: san1∆
attribute measured: protein stability index

| residue sequence | attribute measured | result |
| --- | --- | --- |
| LGDKELWPVAIGLIALS [YJR042W/NUP85] | protein stability index | 1.64 |
| EKQIEELLDNCIETFVA [SRB6] | protein stability index | 3.19 |
| GRNIGHPIIQDKEGNGV [RPB3] | protein stability index | 3.04 |
| AGLEITSDNLLTITKAA [RPP1B] | protein stability index | 2.78 |
| ELFKDYKPGSITLENIT [MED1] | protein stability index | 1.96 |
| EIRAKEYKTSSDSLGPD [SRB2] | protein stability index | 3.04 |
| SLYIFFTTLLESKQDGL [YML103C/NUP188] | protein stability index | 1.25 |
| GSLNATNFSPTPANNGE [SNF2] | protein stability index | 2.76 |
| EIILKLCRNPLTSGLLY [YJL039C/NUP192] | protein stability index | 1.22 |
| AELKLAGEFGLKNKREI [RPS9B] | protein stability index | 3.2 |
| QEDFEVVEEFTPVVLAT [RPS5] | protein stability index | 2.3 |
| LRYYKNIWLNNKIINWE [NUT1] | protein stability index | 2.2 |
| YVYRASKEVRGSKIRVM [RPL33A] | protein stability index | 2.5 |
| ISAPSMEDEILSLGMDF [BRN1] | protein stability index | 3.19 |
| SSEQFNVWDWNNWTSAT [GAL11] | protein stability index | 3.14 |
| QPMISPDNSIFGDTKSE [SWI3] | protein stability index | 2.94 |
| PDPRSTVIPEDEEIIQL [RPO21] | protein stability index | 2.79 |
| KTAIEGSYIDKKCPFTG [RPS11A] | protein stability index | 3.08 |
| TYKYPSLKGVDPKFRRN [RPL29] | protein stability index | 2.97 |
| DVKSSLSKVFSDVLFEF [YJL039C/NUP192] | protein stability index | 2.58 |
| VRPSISFNESQRGEDDL [RPO21] | protein stability index | 2.75 |
| ASLADVMSIESLVEVVF [FAS1] | protein stability index | 1.78 |
| IQIMANIDQEGSKQADR [PGD1] | protein stability index | 3.08 |
| WDLVDERTKQRTAKAYL [PRP8] | protein stability index | 3.09 |
| TEQQIEIPEGVTVSIKS [RPL9B] | protein stability index | 2.39 |
| MDVDSVKTTLVSLTQLR [RPC82] | protein stability index | 2.08 |
| LWDSKELEQLVEFNRKV [RPN3] | protein stability index | 3.2 |
| EVIFSFEGTPPFSLTYV [YMR129W/POM152] | protein stability index | 2.11 |
| FDRHCNMVLENVKELWT [SMD2] | protein stability index | 1.84 |
| VFLKHSLSIKLATLHYQ [RPN6] | protein stability index | 1.71 |
